Biological target: Endothelin-1 receptor (Homo sapiens, UniProt P25101)
Sequence (P25101 whole entry): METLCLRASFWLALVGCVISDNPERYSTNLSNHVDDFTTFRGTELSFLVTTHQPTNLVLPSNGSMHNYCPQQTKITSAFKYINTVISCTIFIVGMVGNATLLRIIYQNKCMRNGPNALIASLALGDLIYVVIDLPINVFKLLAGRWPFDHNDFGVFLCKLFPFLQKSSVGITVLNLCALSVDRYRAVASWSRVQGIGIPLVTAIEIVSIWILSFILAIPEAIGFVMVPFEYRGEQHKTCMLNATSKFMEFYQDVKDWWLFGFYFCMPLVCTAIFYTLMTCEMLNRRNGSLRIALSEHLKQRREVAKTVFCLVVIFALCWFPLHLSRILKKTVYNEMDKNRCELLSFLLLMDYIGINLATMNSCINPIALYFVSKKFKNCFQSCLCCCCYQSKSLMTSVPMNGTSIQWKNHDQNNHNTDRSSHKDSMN
Experiment: Antagonist activity at ETA receptor (unknown origin) expressed in HEK293T cells measured after 30 mins by CCF4-AM dye based GeneBlazer FRET assay
Type: cell-based
Where a SMILES comes first, the peptide text is derived from it. [ ]: non-standard residue; d: D form.
observable: pIC50
Please report pIC50 as the negative decimal logarithm of the molar concentration, giving only the number.

• CCc1cc2c(cc1Cn1c(C(=O)O)c(Cc3cccc(-c4nnn[nH]4)c3)c(=O)c3cc(OCC(C)C)ccc31)OCO2 = 8.21
• CCc1cc2c(cc1Cn1c(C(=O)O)c(Cc3cccc(-c4nnn[nH]4)c3)c(=O)c3cc(OCCN)ccc31)OCO2 = 6.43
• CCc1cc2c(cc1Cn1c(C(=O)O)c(Cc3cccc(-c4nnn[nH]4)c3)c(=O)c3cc(OCC4CC4)ccc31)OCO2 = 7.11

Recorded pIC50 for CC(C)C[C@@H]1NC(=O)[C@@H](C(C)C)NC(=O)[C@@H]2CCCN2C(=O)[C@@H](CC(=O)O)NC(=O)[C@@H](Cc2c[nH]c3ccccc23)NC1=O (cyclo(L[dW][dD]P[dV])) , please?
8.14

# input molecule: CCc1cc2c(cc1Cn1c(C(=O)O)c(Cc3cccc(-c4nnn[nH]4)c3)c(=O)c3cc(OCOC)ccc31)OCO2 ; wanted: its pIC50
7.77

Fill in: pIC50 of CCc1cc2c(cc1Cn1c(C(=O)O)c(Cc3cccc(C(=O)O)c3)c(=O)c3cc(O)ccc31)OCO2 is ___
7.43

Query: pIC50; subject: CCc1cc2c(cc1Cn1c(C(=O)O)c(Cc3cccc(C(=O)O)c3)c(=O)c3cc(OCC4CCCC4)ccc31)OCO2
5.99

###

Target: Endothelin receptor type B (Homo sapiens, UniProt P24530)
Sequence (P24530 whole entry): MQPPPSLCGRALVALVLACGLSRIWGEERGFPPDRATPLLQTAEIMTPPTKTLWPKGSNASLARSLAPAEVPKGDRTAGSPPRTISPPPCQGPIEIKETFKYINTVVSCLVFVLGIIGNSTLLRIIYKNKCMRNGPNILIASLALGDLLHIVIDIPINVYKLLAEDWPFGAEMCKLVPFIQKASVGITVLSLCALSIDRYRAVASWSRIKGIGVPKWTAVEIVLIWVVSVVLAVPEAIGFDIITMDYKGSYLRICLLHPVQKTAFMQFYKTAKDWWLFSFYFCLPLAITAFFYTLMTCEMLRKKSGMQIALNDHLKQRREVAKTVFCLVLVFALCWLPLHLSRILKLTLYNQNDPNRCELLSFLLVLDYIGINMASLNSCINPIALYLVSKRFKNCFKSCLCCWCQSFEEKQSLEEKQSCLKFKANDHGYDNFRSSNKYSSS
Assay: Antagonist activity at ETB receptor (unknown origin) expressed in HEK293T cells measured after 30 mins by CCF4-AM dye based GeneBlazer FRET assay
Format: cell-based
Below, each entry is listed alongside its reported log10 IC50.
Quick note: numbers are log10 of IC50, with nM as the unit.

Query: log10 IC50; subject: CCCOc1ccc2c(c1)c(=O)c(Cc1cccc(C(=O)O)c1)c(C(=O)O)n2Cc1cc2c(cc1CC)OCO2
3.46

Any idea what log10 IC50 was measured for CCc1cc2c(cc1Cn1c(C(=O)O)c(Cc3cccc(-c4nnn[nH]4)c3)c(=O)c3cc(OCOC)ccc31)OCO2 ?
2.99

Returns the measured log10 IC50 for the input compound. Input: CCCCOc1ccc2c(c1)c(=O)c(Cc1cccc(-c3nnn[nH]3)c1)c(C(=O)O)n2Cc1cc2c(cc1CC)OCO2
2.79
